EC50 (read off the curve) by entry:
Target: Mouse IgG1 Fc fused SARS-CoV-2 RBD (Sino Biological) (SARS-CoV-2; mouse, UniProt P0DTC2 330-518)
Test: ELISA on coated SARS-CoV-2 RBD-muFc, anti-VHH-HRP, OD450 [lower graph]

binder: VHH3.55 (VHH) VHH: QVQLQESGGGLVQAGGSLRLSCEVSGRTNDNYGVGWFRQVPGAERELVAAIRWSSISRYYKDSVKGRFTISRDNAKNTVYLQMDMLKPEDTAAYYCAADPAGWSEFGMEYWGKGTQVTVSS
assay value: ~0.01 µg/mL
//
binder: VHH3.47 (VHH) VHH: QVQLQESGGGLVQAGDSLRLSCAASGHNFSTYAMAWFRQAPGTERELVAAISENDVMRYYADSVKGRFTISRDNAKNMAYLQMNSLKVEDTAVYLCAADPKGWSEWDMDYWGKGTQVTVSS
assay value: ~0.03 µg/mL
//
binder: VHH3.115 (VHH) VHH: QVQLQESGGGLVQTGGSLRLSCAASGLTFSDIAMGWFRQAPGREREFVATISWSGGGTYYAEPVRGRFAISRDNAKNTVYLQMNSLKPEDTAVYYCAAAGAGTVVSEWDYDYDYWGQGTQVTVSS
assay value: ~0.006 µg/mL
//
binder: VHH3.149 (VHH) VHH: QVQLQESGGGLVQAGGSLKLSCAASGRTFSSYALGWFRQAPGTEREFVSAINWFGAPTYYADSVKGRFTISRDNAKNTVYLQMDNLKPEDTAVYYCAADSKGWDPQDMDYWGKGTQVTVSS
assay value: ~0.006 µg/mL

Now for a further binder.
Inquiry: So what's the measured EC50 (read off the curve) for this one? VHH3.77 (VHH) VHH: QVQLQESGGGLVQAGGSLRLSCVSSGRAFGNGAVGWFRQGPGRPREFVATVSWNGGGTYFAESVRGRFTISRDNAKNTVYLQMNNLKPEDTAVYYCALAGEGTVVSEWDYDYEYWGQGTQVTVSS
Reply text: ~0.03 µg/mL
